- Assay procedure: Selectivity index, ratio of CC50 for cytotoxicity against MDCK cells infected with Influenza A virus A/Puerto Rico/8/34 (H1N1) to IC50 for antiviral activity against Influenza A virus A/Puerto Rico/8/34 (H1N1) infected in MDCK cells
- Type: toxicity, cell-based
- Test parameters: dog; read-out: Ratio CC50/IC50
// reported selectivity ratio per item
Answer with the value's number alone.

// known answers, use as guide
> print(dat)
                              line.notation  recorded.result
1  CC1(C)[C@@H]2CC[C@@]1(c1nc(Cc3cccc(F)c3)no1)C(=O)C2               56
2  CC1(C)[C@@H]2CC[C@@]1(c1nc(-c3ccc(F)cc3)no1)C(=O)C2               74
3  C/C(N)=N/OC(=O)[C@]12CC[C@H](CC1=O)C2(C)C                3
4  CC1(C)[C@@H]2CC[C@@]1(C(=O)O/N=C(\N)Cc1ccc(Cl)cc1)C(=O)C2                5
5  CN(C)C/C(N)=N/OC(=O)[C@]12CC[C@H](CC1=O)C2(C)C                8

Write down selectivity ratio measured for item CC1(C)[C@@H]2CC[C@@]1(C(=O)O/N=C(\N)Cc1ccccc1F)C(=O)C2 7

Write down selectivity ratio measured for item CC(C)c1noc([C@]23CC[C@H](CC2=O)C3(C)C)n1 5

Write down selectivity ratio measured for item CC1(C)[C@@H]2CC[C@@]1(C(=O)O/N=C(\N)c1ccccn1)C(=O)C2 42

----------
// reported selectivity ratio per item
- Assay procedure: Selectivity index, ratio of CC50 for cytotoxicity against MDCK cells infected with Influenza A virus A/Puerto Rico/8/34 (H1N1) to IC50 for antiviral activity against Influenza A virus A/Puerto Rico/8/34 (H1N1) infected in MDCK cells
- Assay type: toxicity, cell-based
- Test parameters: dog; read-out: Ratio CC50/IC50
Answer with the value's number alone.

> print(dat)
                                   compound  measurement.label  recorded.result
1  CN(C)Cc1noc([C@]23CC[C@H](CC2=O)C3(C)C)n1  selectivity ratio                1
2  CC1(C)[C@@H]2CC[C@@]1(c1nc(-c3ccc(Cl)cc3)no1)C(=O)C2  selectivity ratio                2
3  CC(N)C12CC3CC(CC(C3)C1)C2 (stereo not given) [RIMANTADINE]  selectivity ratio                6

Write down selectivity ratio measured for item CC1(C)[C@@H]2CC[C@@]1(c1nc(-c3ccncc3)no1)C(=O)C2 40

Write down selectivity ratio measured for item CC(C)(C)/C(N)=N/OC(=O)[C@]12CC[C@H](CC1=O)C2(C)C 1

Write down selectivity ratio measured for item CC1(C)[C@@H]2CC[C@@]1(c1nc(Cc3ccccc3F)no1)C(=O)C2 5

----------
- Test system: Influenza A virus
- Assay procedure: Antiviral activity against Influenza A virus A/Puerto Rico/8/34 (H1N1) infected in MDCK cells assessed as inhibition of viral replication
- Type: functional, organism-based
Measurement label: log10 of IC50 (log10 of the value in µM)
Friendly reminder: values = log10 of IC50, unit µM.

// known answers, use as guide
> print(dat)
                                   compound  recorded.result
1  CC(N)C12CC3CC(CC(C3)C1)C2 (stereo not given)             1.81
2  CC(C)c1noc([C@]23CC[C@H](CC2=O)C3(C)C)n1             2.27
3  CC1(C)[C@@H]2CC[C@@]1(C(=O)O/N=C(\N)c1ccccn1)C(=O)C2             1.26
4  CC1(C)[C@@H]2CC[C@@]1(c1nc(-c3ccc(Cl)cc3)no1)C(=O)C2             1.52
5  CC1(C)[C@@H]2CC[C@@]1(c1nc(-c3ccc(Br)cc3)no1)C(=O)C2             0.78

Report measured log10 of IC50 on Influenza A virus; entry: CC1(C)[C@@H]2CC[C@@]1(c1nc(-c3ccccc3)no1)C(=O)C2 0.70

Report measured log10 of IC50 on Influenza A virus; entry: CC1(C)[C@@H]2CC[C@@]1(c1nc(-c3ccccc3F)no1)C(=O)C2 1.08

Report measured log10 of IC50 on Influenza A virus; entry: CC1(C)[C@@H]2CC[C@@]1(c1nc(-c3ccncc3)no1)C(=O)C2 1.40

Report measured log10 of IC50 on Influenza A virus; entry: CCc1noc([C@]23CC[C@H](CC2=O)C3(C)C)n1 2.29

Report measured log10 of IC50 on Influenza A virus; entry: CC1(C)[C@@H]2CC[C@@]1(c1nc(Cc3ccccc3F)no1)C(=O)C2 1.89

----------
// reported CC50 per item
- Assay procedure: Cytotoxicity against MDCK cells infected with Influenza A virus A/Anhui/1/2013 (H7N9) assessed as reduction in cell viability
- Type: toxicity, cell-based, Canis lupus familiaris
- Test parameters: dog

> print(dat)
                                   compound  recorded.result
1  CC1(C)[C@@H]2CC[C@@]1(c1nc(-c3cccnc3)no1)C(=O)C2          1060 µM
2  CC1(C)[C@@H]2CC[C@@]1(C(=O)O/N=C(\N)c1cccnc1)C(=O)C2           831 µM
3  CC1(C)[C@@H]2CC[C@@]1(c1nc(Cc3ccc(Br)cc3)no1)C(=O)C2         > 800 µM
4  CC1(C)[C@@H]2CC[C@@]1(c1nc(Cc3ccc(Cl)cc3)no1)C(=O)C2         > 906 µM
5  CC1(C)[C@@H]2CC[C@@]1(c1nc(Cc3cccc(F)c3)no1)C(=O)C2           344 µM

Write down CC50 measured for item CC1(C)[C@@H]2CC[C@@]1(C(=O)O/N=C(\N)c1cccc(F)c1)C(=O)C2 79 µM

Write down CC50 measured for item CCC(CC)O[C@@H]1C=C(C(=O)O)C[C@H](N)[C@H]1NC(C)=O [OSELTAMIVIR CARBOXYLATE] > 100 µM

Write down CC50 measured for item CC1(C)[C@@H]2CC[C@@]1(C(=O)O/N=C(\N)c1ccc(F)cc1)C(=O)C2 94 µM

Write down CC50 measured for item CC1(C)[C@@H]2CC[C@@]1(c1nc(-c3ccncc3)no1)C(=O)C2 1110 µM

Write down CC50 measured for item CC1(C)[C@@H]2CC[C@@]1(c1nc(-c3ccc(F)cc3)no1)C(=O)C2 203 µM

Write down CC50 measured for item CC1(C)[C@@H]2CC[C@@]1(c1nc(-c3ccccc3)no1)C(=O)C2 199 µM

Write down CC50 measured for item CC1(C)[C@@H]2CC[C@@]1(C(=O)O/N=C(\N)c1ccc(Cl)cc1)C(=O)C2 75 µM

Write down CC50 measured for item CC1(C)[C@@H]2CC[C@@]1(C(=O)O/N=C(\N)c1ccccn1)C(=O)C2 688 µM

Write down CC50 measured for item CC1(C)[C@@H]2CC[C@@]1(C(=O)O/N=C(\N)c1ccc(Br)cc1)C(=O)C2 354 µM

Write down CC50 measured for item CC1(C)[C@@H]2CC[C@@]1(c1nc(-c3cccc(F)c3)no1)C(=O)C2 > 1000 µM

----------
- Assay procedure: Cytotoxicity against MDCK cells infected with Influenza A virus A/Puerto Rico/8/34 (H1N1) assessed as reduction in cell viability
- Type: toxicity, cell-based, Canis lupus familiaris
- Test parameters: dog
Sorting guide: entries reporting CC50 beneath 300 µM go in the yes (1) pile, the rest go in the no (0) pile.

Strictly below 300 µM: is that where CC50 of CC1(C)[C@@H]2CC[C@@]1(C(=O)O/N=C(\N)c1cccc(F)c1)C(=O)C2 sits? yes (1)

Strictly below 300 µM: is that where CC50 of C/C(N)=N/OC(=O)[C@]12CC[C@H](CC1=O)C2(C)C sits? no (0)

Strictly below 300 µM: is that where CC50 of CC1(C)[C@@H]2CC[C@@]1(C(=O)O/N=C(\N)c1ccc(Cl)cc1)C(=O)C2 sits? yes (1)

Strictly below 300 µM: is that where CC50 of CC1(C)[C@@H]2CC[C@@]1(C(=O)O/N=C(\N)Cc1ccccc1F)C(=O)C2 sits? no (0)

Strictly below 300 µM: is that where CC50 of CC1(C)[C@@H]2CC[C@@]1(c1nc(Cc3ccccc3F)no1)C(=O)C2 sits? no (0)

----------
// reported selectivity ratio per item
- Assay procedure: Selectivity index, ratio of CC50 for cytotoxicity against MDCK cells infected with Influenza A virus A/Anhui/1/2013 (H7N9) to IC50 for antiviral activity against Influenza A virus A/Anhui/1/2013 (H7N9) infected in MDCK cells
- Assay type: toxicity, cell-based
- Test parameters: dog; read-out: Ratio CC50/IC50
Answer with the value's number alone.

// known answers, use as guide
> print(dat)
                                   molecule  recorded.result
1  CC(N)C12CC3CC(CC(C3)C1)C2 (configuration not stated) [RIMANTADINE]                7
2  CC1(C)[C@@H]2CC[C@@]1(c1nc(Cc3ccc(Cl)cc3)no1)C(=O)C2              120
3  CC1(C)[C@@H]2CC[C@@]1(C(=O)O/N=C(\N)c1ccccn1)C(=O)C2                6
4  CC1(C)[C@@H]2CC[C@@]1(c1nc(-c3ccc(F)cc3)no1)C(=O)C2                7
5  CC1(C)[C@@H]2CC[C@@]1(c1nc(-c3ccncc3)no1)C(=O)C2                3
6  CC1(C)[C@@H]2CC[C@@]1(c1nc(-c3cccc(F)c3)no1)C(=O)C2               11

Now take the following molecule into account.
Write down selectivity ratio measured for item CC1(C)[C@@H]2CC[C@@]1(C(=O)O/N=C(\N)c1ccc(Cl)cc1)C(=O)C2 3
